Reported IC50 by item:
- study target: EGFR del19 (Homo sapiens (Human), UniProt P00533, DEL746-750)
- Sequence (P00533 other isoform, or with tags, fused parts or gaps del 1-668/del 746-750 limits assumed): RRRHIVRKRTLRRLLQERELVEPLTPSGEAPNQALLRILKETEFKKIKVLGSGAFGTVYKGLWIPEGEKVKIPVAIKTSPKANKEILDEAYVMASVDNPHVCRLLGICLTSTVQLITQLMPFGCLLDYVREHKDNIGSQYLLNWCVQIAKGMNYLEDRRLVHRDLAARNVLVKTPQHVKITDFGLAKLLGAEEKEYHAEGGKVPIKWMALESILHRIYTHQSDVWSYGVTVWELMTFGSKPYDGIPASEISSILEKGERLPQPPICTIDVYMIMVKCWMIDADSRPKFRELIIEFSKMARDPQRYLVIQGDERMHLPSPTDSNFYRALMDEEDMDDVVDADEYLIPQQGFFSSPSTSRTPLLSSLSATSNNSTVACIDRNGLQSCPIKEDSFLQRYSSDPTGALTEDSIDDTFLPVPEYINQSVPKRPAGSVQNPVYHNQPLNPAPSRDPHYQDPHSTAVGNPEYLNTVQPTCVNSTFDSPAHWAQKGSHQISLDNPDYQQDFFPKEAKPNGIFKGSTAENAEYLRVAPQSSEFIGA
- test name: HTRF inhibitory activity against EGFR mutant enzyme (EGFR del19)
- condition notes: recombinant enzyme, 37° C. for 2 hours
Report only the number, with the unit nM understood.

# example entries with known answers
| compound | study target | IC50 / nM |
| --- | --- | --- |
| C=CC(=O)Nc1cc(Nc2ncc(Cl)c(Nc3cccc(C)c3N(C)C(C)=O)n2)c(OC)cc1N(C)CCN(C)C [Example 85] | EGFR del19 (Homo sapiens (Human), UniProt P00533, DEL746-750) | 18 |
| C=CC(=O)Nc1cc(Nc2ncc(Cl)c(Nc3ccccc3NS(C)(=O)=O)n2)c(OC)cc1N(C)CCN1CCCC1 [Example 21] | EGFR del19 (Homo sapiens (Human), UniProt P00533, DEL746-750) | 1 |
| C=CC(=O)Nc1cc(Nc2ncc(Cl)c(Nc3cccc4c3N(S(C)(=O)=O)CCC4)n2)c(OC)cc1N1CCC(N(C)C)CC1 [Example 49] | EGFR del19 (Homo sapiens (Human), UniProt P00533, DEL746-750) | 0.1 |

Entry under test: C=CC(=O)Nc1cc(Nc2ncc(C)c(Nc3ccccc3NS(=O)(=O)c3ccccc3)n2)c(OC)cc1N(C)CCN(C)C [Example 20] . Its IC50 was 2
